Value source: patent US20260327214A1

- MEASURED TARGET: human recombinant HDAC6 (Homo sapiens, UniProt Q9UBN7)
- Sequence (Q9UBN7 whole entry): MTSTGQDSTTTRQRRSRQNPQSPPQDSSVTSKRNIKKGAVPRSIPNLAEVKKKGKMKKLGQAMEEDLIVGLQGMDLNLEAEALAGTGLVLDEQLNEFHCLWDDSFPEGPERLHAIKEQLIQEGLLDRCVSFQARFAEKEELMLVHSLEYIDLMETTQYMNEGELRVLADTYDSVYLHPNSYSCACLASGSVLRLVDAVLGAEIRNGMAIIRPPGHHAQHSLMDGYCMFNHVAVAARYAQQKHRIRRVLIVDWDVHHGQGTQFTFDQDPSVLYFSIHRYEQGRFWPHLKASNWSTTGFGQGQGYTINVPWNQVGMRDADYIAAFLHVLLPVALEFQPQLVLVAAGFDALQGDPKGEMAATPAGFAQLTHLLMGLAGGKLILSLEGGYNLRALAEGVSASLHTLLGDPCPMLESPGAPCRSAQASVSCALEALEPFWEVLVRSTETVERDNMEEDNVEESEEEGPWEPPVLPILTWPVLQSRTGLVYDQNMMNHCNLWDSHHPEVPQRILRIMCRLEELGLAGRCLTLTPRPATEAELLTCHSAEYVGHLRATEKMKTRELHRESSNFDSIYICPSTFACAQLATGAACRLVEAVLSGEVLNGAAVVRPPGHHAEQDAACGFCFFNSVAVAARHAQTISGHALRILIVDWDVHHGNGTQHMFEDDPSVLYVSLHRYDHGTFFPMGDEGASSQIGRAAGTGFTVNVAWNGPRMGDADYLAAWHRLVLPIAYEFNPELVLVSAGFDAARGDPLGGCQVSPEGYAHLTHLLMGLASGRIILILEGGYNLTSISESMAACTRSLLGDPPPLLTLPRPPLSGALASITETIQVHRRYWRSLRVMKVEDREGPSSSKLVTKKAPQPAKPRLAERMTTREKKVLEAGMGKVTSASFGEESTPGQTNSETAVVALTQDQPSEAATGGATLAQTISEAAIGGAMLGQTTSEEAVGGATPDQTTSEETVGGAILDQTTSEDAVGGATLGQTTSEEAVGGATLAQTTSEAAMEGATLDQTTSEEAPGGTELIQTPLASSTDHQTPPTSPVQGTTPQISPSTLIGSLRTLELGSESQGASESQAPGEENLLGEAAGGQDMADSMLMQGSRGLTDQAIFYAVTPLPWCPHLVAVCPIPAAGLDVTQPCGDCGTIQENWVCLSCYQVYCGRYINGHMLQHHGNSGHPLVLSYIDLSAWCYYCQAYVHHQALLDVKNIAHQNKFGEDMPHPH
- TEST PROTOCOL: HDAC6 enzyme activity inhibition test (HDAC Fluorometric Drug Discovery Kit)
- CONDITION DESCRIPTION: human recombinant HDAC6; same protocol as HDAC1
QUANTITY MEASURED: IC50 (nM)

record_smiles=CC(C)N1CCN(Cc2cccc(-c3nn(Cc4ccc(-c5nnc(C(F)F)o5)cn4)c(=O)s3)c2)CC1 quantity_measured=IC50 obs_value=80.7
record_smiles=FC(F)c1nnc(-c2ccc(Cn3nc(-c4cccc(CN5CCCCC5)c4)oc3=S)nc2)o1 quantity_measured=IC50 obs_value=89.9
record_smiles=CCN(CC)Cc1ccc(-c2nn(Cc3ccc(-c4nnc(C(F)F)o4)cn3)c(=S)o2)s1 quantity_measured=IC50 obs_value=110

1 = FC(F)c1nnc(-c2ccc(Cn3nc(-c4ccc(CN5CCN(C6CCCC6)CC5)cc4)oc3=S)nc2)o1
2 = Fc1cc(-c2nnc(C(F)F)o2)cnc1Cn1nc(-c2ccc(CN3CCCCC3)cc2)oc1=S
Pick one: 1 or 2 . Which one has the lower reported IC50? Respond with the label that goes with your answer.
2

a = O=c1oc(-c2ccccc2F)nn1Cc1ccc(-c2nnc(C(F)F)o2)cn1
b = CC(C)N1CCc2cc(-c3nn(Cc4ncc(-c5nnc(C(F)F)o5)cc4F)c(=S)o3)ccc2C1
Looking at recorded values for IC50, does a or b come in lower? Output the label that corresponds to your choice.
b
(b: 59.5 nM, a: 95.5 nM)

1 = CCN1CCN(c2cccc(-c3nn(Cc4ccc(-c5nnc(C(F)F)o5)cn4)c(=S)o3)n2)CC1
2 = Fc1cc(-c2nnc(C(F)F)o2)cnc1Cn1nc(-c2ccc(CN3CC[C@@H](F)C3)cc2)oc1=S
3 = O=c1oc(-c2ccccc2)cn1Cc1ccc(-c2nnc(C(F)F)o2)cn1
4 = CCN1CCN(c2cccc(-c3nn(Cc4ncc(-c5nnc(C(F)F)o5)cc4F)c(=S)o3)n2)CC1
Falling order of IC50, please. Field: ranking. Enter the labels in the order requested.
3, 2, 4, 1
